TEST_METHOD_NOTES: in vitro
PROTOCOL_CONDITIONS: human, HeLa cells
# Lookup of reported viability at 48 h, 100 µM keyed by entry

[[record]]
compound = "COc1ccc(NC(=O)CSc2nc3[nH]ncc3c(=O)n2-c2ccccc2)cc1"
readout_label = "viability at 48 h, 100 µM"
observed_result = "> 90%"

[[record]]
compound = "Cn1c(=O)c2ncn(CC(=O)Nc3ccc(O)cc3)c2n(C)c1=O"
readout_label = "viability at 48 h, 100 µM"
observed_result = "> 90%"


Could you now look at the following compound, please?
-- ask What value of viability at 48 h, 100 µM has been reported for the following compound? O=C(CC1S/C(=N\N=C2CCCC2)N=C1O)Nc1ccccc1 (stereo not drawn)
-- reply > 90%
